B1: PTPN9 (parent)
chain: TQHLPRECLPENLGGYVKIDLATW

Variants of: B1
Assay: protein stability index of a GFP-peptide fusion (GPS, HEK-293T) (PSI 1-6); higher = more stable;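 note: lentivirally expressed fusions sorted by FACS into six bins by GFP to DsRed ratio, PSI derived from sequencing read proportions per bin multiplied by bin number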
Settings: c terminus: a fixed tail appended
Label true (1) when protein stability index >= 2; otherwise false (0).

Hi team, for `N12S` , is the recorded protein stability index at or above 2?
true (1)

Check if protein stability index >= 2 (inclusive). Item: `A22P`
true (1)

Identify whether the reported protein stability index of the following variant is 2 or greater: `Q2E`
true (1)

Please indicate if the recorded protein stability index for `L21D` meets or exceeds 2.
true (1)

Does protein stability index meet or surpass 2 for `T23L` ?
false (0)

I'd appreciate it if you could say whether `W24A` has protein stability index at least equal to 2.
true (1)

Reported protein stability index at or above 2? `Q2F`
false (0)

Given the entry `G15N` , answer whether its protein stability index meets or surpasses 2.
false (0)

In plain terms: is recorded protein stability index at least 2 for `E7T` ?
false (0)

API: above_or_equal(metric=protein stability index, cutoff=2) for item `E11Q`
false (0)

# bool: protein stability index of `L4H` >= 2
true (1)

Reference for the values: the supplement of paper PMC10567573
